Measured drug sensitivity score of individual entries
Test system: MDA-MB-453
Assay: drug sensitivity score (DSS), CellTiter-Blue viability (DSS (AUC-based score)); higher = stronger viability inhibition; extreme values may be limits of the assay
Settings: incubation time: 72 h
Form rule: numeric answer, no unit written next to it.

Example cases with answers are listed next.
>  <Chemical structure>
COc1cc2c(Oc3ccc(NC(=O)C4(C(=O)Nc5ccc(F)cc5)CC4)cc3F)ccnc2cc1OCCCN1CCOCC1

>  <Measured attribute>
drug sensitivity score

>  <Measured number>
0

$$$$
>  <Chemical structure>
CO[C@H]1C[C@@H]2CC[C@@H](C)[C@@](O)(O2)C(=O)C(=O)N2CCCC[C@H]2C(=O)O[C@H]([C@H](C)C[C@@H]2CC[C@@H](O)[C@H](OC)C2)CC(=O)[C@H](C)/C=C(\C)[C@@H](O)[C@@H](OC)C(=O)[C@H](C)C[C@H](C)/C=C/C=C/C=C/1C

>  <Measured attribute>
drug sensitivity score

>  <Measured number>
27.8

$$$$

Turning now to a further molecule:
drug sensitivity score for MDA-MB-453 with input NC(=O)c1cccc2cn(-c3ccc([C@@H]4CCCNC4)cc3)nc12 equals 0

Ref: the supplement of paper PMC4862054
